Target Or Test System: AstC-R (Aplysia californica, UniProt A0ABM0JJJ7)
Sequence (A0ABM0JJJ7 1-425): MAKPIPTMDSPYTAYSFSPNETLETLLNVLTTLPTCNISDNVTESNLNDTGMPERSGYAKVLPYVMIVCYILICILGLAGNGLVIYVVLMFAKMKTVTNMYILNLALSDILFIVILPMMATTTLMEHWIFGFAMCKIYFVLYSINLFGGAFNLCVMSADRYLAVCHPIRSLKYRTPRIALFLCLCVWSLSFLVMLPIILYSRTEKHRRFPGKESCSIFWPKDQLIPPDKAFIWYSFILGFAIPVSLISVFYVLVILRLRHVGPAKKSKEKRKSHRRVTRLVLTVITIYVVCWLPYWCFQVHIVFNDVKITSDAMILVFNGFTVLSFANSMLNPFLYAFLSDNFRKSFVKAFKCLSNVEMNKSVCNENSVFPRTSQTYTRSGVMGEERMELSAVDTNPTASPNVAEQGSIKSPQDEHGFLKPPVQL
Assay Procedure: IP1 accumulation assay, CHO-K1 cells expressing putative receptor AstC-R
Format: cell-based
Test Parameters: average EC50, n = 3; IP1 accumulation, CHO cells co-transfected with AstC-R and Gα16 plasmids; peptide 10^–12 M to 10^–4 M; read-out: [EC50] on AstC-R
Where a SMILES comes first, the peptide text is derived from it. Bridges are numbered along the chain shown (N, C = ends).
Property Label: pEC50
Numbers only, as −log10 of the molar value.

Compound	pEC50
CC[C@H](C)[C@H](NC(=O)[C@H](Cc1c[nH]cn1)NC(=O)[C@@H](N)CO)C(=O)N[C@@H](CCCNC(=N)N)C(=O)N[C@H]1CSSC[C@@H](C(=O)N[C@@H](Cc2ccc(O)cc2)C(=O)O)NC(=O)[C@H](C)NC(=O)[C@H]([C@@H](C)CC)NC(=O)[C@H](C(C)C)NC(=O)[C@H](CC(N)=O)NC(=O)[C@H](C(C)C)NC(=O)[C@H](CC(C)C)NC1=O [AstC-C] (H-SHIRCLVNVIACY-OH; disulfide 5-12)	6.96
CSCC[C@H](NC(=O)[C@H](CO)NC(=O)[C@H](CO)NC(=O)[C@H](Cc1ccc(O)cc1)NC(=O)[C@@H](N)[C@@H](C)O)C(=O)N[C@H]1CSSC[C@@H](C(=O)N[C@@H](Cc2ccc(O)cc2)C(=O)O)NC(=O)[C@H](C)NC(=O)[C@H](C(C)C)NC(=O)[C@H](C(C)C)NC(=O)[C@H](CC(N)=O)NC(=O)[C@H](Cc2ccccc2)NC(=O)[C@H](CCSC)NC1=O [AstC-D] (H-TYSSMCMFNVVACY-OH; disulfide 6-13)	7.72
CC[C@H](C)[C@@H]1NC(=O)[C@H](CC(C)C)NC(=O)[C@H](CC(N)=O)NC(=O)[C@H](C(C)C)NC(=O)[C@H](CC(C)C)NC(=O)[C@@H](NC(=O)[C@H](CCSC)NC(=O)[C@@H](NC(=O)[C@H](Cc2c[nH]cn2)NC(=O)[C@@H](N)CO)C(C)C)CSSC[C@@H](C(=O)N[C@@H](Cc2ccccc2)C(=O)O)NC(=O)[C@H](CO)NC1=O [AstC-L] (H-SHVMCLVNLISCF-OH; disulfide 5-12)	6.95

Pending compound:
Task: Which pEC50 is listed for CSCC[C@H](NC(=O)[C@H](CO)NC(=O)[C@H](CO)NC(=O)[C@H](Cc1ccc(O)cc1)NC(=O)[C@H](Cc1c[nH]cn1)NC(=O)[C@@H](N)CO)C(=O)N[C@H]1CSSC[C@@H](C(=O)N[C@@H](Cc2ccc(O)cc2)C(=O)O)NC(=O)[C@H](C)NC(=O)[C@H](C(C)C)NC(=O)[C@H](C(C)C)NC(=O)[C@H](CC(N)=O)NC(=O)[C@H](Cc2ccccc2)NC(=O)[C@H](CCSC)NC1=O [AstC] (H-SHYSSMCMFNVVACY-OH; disulfide 7-14; N-terminus assumed) ?
Output: 8.11

---

Target Or Test System: AstC-R (Aplysia californica, UniProt A0ABM0JJJ7)
Assay Procedure: IP1 accumulation assay, CHO-K1 cells expressing putative receptor AstC-R
Format: cell-based
Test Parameters: average EC50, n = 3; IP1 accumulation, CHO cells co-transfected with AstC-R and Gα16 plasmids; peptide 10^–12 M to 10^–4 M; read-out: [EC50] on AstC-R
Where a SMILES comes first, the peptide text is derived from it. Bridges are numbered along the chain shown (N, C = ends).
Property Label: pEC50
Answers are plain numbers, as −log10 of the molar value.

Task: Which pEC50 is listed for CSCC[C@H](NC(=O)[C@H](CO)NC(=O)[C@H](CC(N)=O)NC(=O)[C@H](Cc1ccc(O)cc1)NC(=O)[C@H](Cc1c[nH]cn1)NC(=O)[C@@H](N)CO)C(=O)N[C@H]1CSSC[C@@H](C(=O)N[C@@H](Cc2ccc(O)cc2)C(=O)O)NC(=O)[C@H](C)NC(=O)[C@H](C(C)C)NC(=O)[C@H](C(C)C)NC(=O)[C@H](CC(N)=O)NC(=O)[C@H](Cc2ccccc2)NC(=O)[C@H](CCSC)NC1=O [AstC-T] (H-SHYNSMCMFNVVACY-OH; disulfide 7-14) ?
Output: 7.75
